Tested on: panel of breast cancer cell lines
measurement notes: Compound A with targeted agents and chemotherapies, 72-hour in vitro proliferation assays
Type: cell-based
condition: MCF7 cells; Compound A × partner agent; 72-hour proliferation
Hi! Could you tag entries with HSA volume below 8 as T, and those at or above as F? Much appreciated.

Consider the worked cases shown below.
>  <molecule>
N.N.O=C([O-])C1(C(=O)[O-])CCC1.[Pt+2]

>  <label value>
T

$$$$
>  <molecule>
CO[C@H]1C[C@@H]2CC[C@@H](C)[C@@](O)(O2)C(=O)C(=O)N2CCCC[C@H]2C(=O)O[C@H]([C@H](C)C[C@@H]2CC[C@@H](OCCO)[C@H](OC)C2)CC(=O)[C@H](C)/C=C(\C)[C@@H](O)[C@@H](OC)C(=O)[C@H](C)C[C@H](C)/C=C/C=C/C=C/1C

>  <label value>
T

$$$$

Could you now consider this next molecule?
Req: Confirm or reject: HSA volume of CC(=O)O[C@@]12CO[C@@H]1C[C@H](O)[C@@]1(C)C(=O)[C@H](O)C3=C(C)[C@@H](OC(=O)[C@H](O)[C@@H](NC(=O)OC(C)(C)C)c4ccccc4)C[C@@](O)([C@@H](OC(=O)c4ccccc4)[C@H]21)C3(C)C lies strictly below 8
Resp: F
